Assay: Stability in mouse liver microsomes
Type: in vitro ADME
Settings: pH 7.4
PROPERTY LABEL: CLint scaled at 1 μM (mL/min/kg)

[[record]]
molecule = "C#Cc1c(F)ccc2cc(O)cc(-c3ncc4c(N5CC6CCC(C5)N6)nc(OC[C@@]56CCCN5C[C@H](F)C6)nc4c3F)c12 [MRTX1133]"
unit_tag = "mL/min/kg"
obs_value = 143


----------
Assay: Blood, tumor and tissue concentration after last dose in the tumor model
Type: in vivo, Balb/c nude mice
Details: female, Balb/c nude (Nu/Nu), mouse, whole blood, ip, 10 mg/kg
PROPERTY LABEL: concentration at 2 h

[[record]]
query_smiles = "C#Cc1c(F)ccc2cc(O)cc(-c3ncc4c(N5CC6CCC(C5)N6)nc(OC[C@@]56CCCN5C[C@H](F)C6)nc4c3F)c12"
obs_value = "654 ng/mL"

